Experiment: chemical genetic growth profiling, strain panel (AID 1159580);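 note: tested at 20 µM; growth read once vehicle control cultures reached saturation at 30 °C; 1 = growth at the plate median or of vehicle wells; lower values mean less growth of the strain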
Conditions: S. cerevisiae deletion strains, growth OD, locus YCL016C, strain dcc1, active compounds read low
Where a name gives a salt, the structure may show the parent alone. Among all 5,500 compounds or so, about 2,000 (36%) were called active. Not shown: some 18% with an inconclusive outcome. This is one part of the list. Where a SMILES comes first, the peptide text is derived from it. The star is where a group is joined. Tfa = O=C(C(F)(F)F)*
property: normalized growth
# answer = number (no unit)

Worked examples follow.
INSERT INTO assay_data (molecule, test_value) VALUES
  ('CC(C)NNC(=O)c1ccncc1', 1.01),
  ('CC(C)C(NC(=O)C(Cc1ccc(O)cc1)NC(=O)C(NC(=O)C(F)(F)F)C(C)C)C(=O)O (stereo not drawn) (Tfa-Val-Tyr-Val-OH; configuration not given here)', 0.98),
  ('O=C1OC2(c3ccc(O)cc3Oc3cc(O)ccc32)c2ccccc21', 1);

Sample `OC(Cn1cncn1)(Cn1cncn1)c1ccc(F)cc1F` ; normalized growth observed: 0.987

Sample COc1cc2c(cc1OC)C1Cc3ccc(OC)c(OC)c3CN1CC2 (configuration not stated) ; normalized growth observed: 0.999

Sample C=CC(N)CCC(=O)O (configuration not stated) ; normalized growth observed: 0.976

Sample `CC(C)NC[C@H](O)COc1cccc2ccccc12` ; normalized growth observed: 0.991

Sample NC(CO)C(=O)NNCc1ccc(O)c(O)c1O (configuration not stated) ; normalized growth observed: 0.977

Sample `O=C1OC(c2ccc(O)cc2)(c2ccc(O)cc2)c2ccccc21` ; normalized growth observed: 1.01

Sample `O=C1C=C2C=C[C@@H]3C[C@@]2(O1)[C@H]1CCCCN31` ; normalized growth observed: 1.04

Sample CCCC(=O)O[C@]1(C(=O)CO)CCC2[C@@H]3CCC4=CC(=O)CC[C@]4(C)C3[C@@H](O)C[C@@]21C (some centres not stated) ; normalized growth observed: 1.01

Sample `NC(N)=NS(=O)(=O)c1ccc(N)cc1` ; normalized growth observed: 0.983

* * *

Experiment: chemical genetic growth profiling, strain panel (AID 1159580);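 note: tested at 20 µM; growth read once vehicle control cultures reached saturation at 30 °C; 1 = growth at the plate median or of vehicle wells; lower values mean less growth of the strain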
Details: S. cerevisiae deletion strains, growth OD, locus YPL055C, strain LGE1, active compounds read low
The whole screen tested about 5,500 compounds, of which about 2,000 (36%) were called active. Not shown: some 18% with an inconclusive outcome. This is one part of the list.
# maps each entry to its normalized growth
# answer = number (no unit)

Worked examples follow.
INSERT INTO results (molecule, property, test_value) VALUES
  ('Cc1c(Cl)cccc1Nc1ccccc1C(=O)O', 'normalized growth', 0.794),
  ('C[N+](C)(CCCCCC[N+](C)(C)CCCN1C(=O)c2cccc3cccc(c23)C1=O)CCCN1C(=O)c2cccc3cccc(c23)C1=O', 'normalized growth', 0.963),
  ('OC(CN1CCC(Cc2ccc(F)cc2)CC1)c1ccc(Cl)cc1 (stereo not given)', 'normalized growth', 1.01);

Sample `N#Cc1c(N)oc(-c2ccco2)c1-c1ccco1` ; normalized growth observed: 0.789

Sample `CCC(C)(C)C(=O)O[C@H]1C[C@@H](C)C=C2C=C[C@H](C)[C@H](CC[C@@H]3C[C@@H](O)CC(=O)O3)[C@H]21` ; normalized growth observed: 0.926

// provenance: PubChem BioAssay AID1159580
